The reported measurements were obtained from patent US6727076B2.

system: E. coli strain 14443 (MG1655 (FB426)); format: cell-based; note: key: '+' indicates that the organism tested was capable of utilizing the carbon source listed; '−' indicates that the organism tested was not capable of utilizing the carbon source listed; 'w' indicates weak positive reactions
property name: carbon source utilization

molecule	carbon source utilization
NCCO [2-amino ethanol]	−
O=C(O)Cc1ccc(O)cc1 [P-hydroxy phenylacetic acid]	−
CO[C@H]1O[C@H](CO)[C@H](O)[C@H](O)[C@H]1O [α-methyl galactoside]	+
C[C@H](O)C(=O)O [L-lactic acid]	+
CC(O)CO (centres unmarked) [1,2-propanediol]	−

get_value(item= O=C(O)C[C@H](O)C(=O)O [L-malic acid] , readout=carbon source utilization) returns +

carbon source utilization measured on N[C@@H](C(=O)O)[C@@H](O)[C@H](O)[C@H](O)CO [D-glucosaminic acid] = −

carbon source utilization in this record for O=C1O[C@@H]([C@H](O)CO)[C@H](O)[C@H]1O [D-galactonic acid-γ-lactone] : +
